Assignment: determine reported Ratio IC50 for the given molecules.
Test system: HCT-116
Assay: Selectivity index, ratio of IC50 for human MRC5 cells to IC50 for human HCT116 cells
Type: functional
Answers are plain numbers.

| QUERY SMILES | Ratio IC50 |
| --- | --- |
| COc1ccc(O)c(/C=N/NC(=O)c2ccc3c4c(ccc3c2)N2Cc3c(ccc5cc(C(=O)N/N=C/c6cc(OC)ccc6O)ccc35)N(C4)C2)c1 | 622.3 |
| O=C(N/N=C/c1cc(F)ccc1O)c1ccc2c3c(ccc2c1)N1Cc2c(ccc4cc(C(=O)N/N=C/c5cc(F)ccc5O)ccc24)N(C3)C1 | 64.9 |
| O=C(N/N=C/c1cc(Cl)ccc1O)c1ccc2c3c(ccc2c1)N1Cc2c(ccc4cc(C(=O)N/N=C/c5cc(Cl)ccc5O)ccc24)N(C3)C1 | 1 |
| O=C(N/N=C/c1cc([N+](=O)[O-])ccc1O)c1ccc2c3c(ccc2c1)N1Cc2c(ccc4cc(C(=O)N/N=C/c5cc([N+](=O)[O-])ccc5O)ccc24)N(C3)C1 | 0.9 |
| COC(=O)c1ccc(O)c(/C=N/NC(=O)c2ccc3c4c(ccc3c2)N2Cc3c(ccc5cc(C(=O)N/N=C/c6cc(C(=O)OC)ccc6O)ccc35)N(C4)C2)c1 | 8.9 |

[ask] If you can, please state the reported Ratio IC50 value of O=C(N/N=C/c1cc(O)ccc1O)c1ccc2c3c(ccc2c1)N1Cc2c(ccc4cc(C(=O)N/N=C/c5cc(O)ccc5O)ccc24)N(C3)C1 .
[reply] 9.1

---

Consider the following compounds; for each one, report its IC50.
Test: Cytostatic activity against human p53-/- HCT116 cells after 72 hrs by MTT assay
Assay type: functional, cell-based
Conditions: HCT-116, 72 h
Numbers only, in nM.

Known results for compounds:
| QUERY SMILES | UNIT TAG | MEASURED RESULT |
| --- | --- | --- |
| O=C(N/N=C/c1nccc2ccccc12)c1ccc2c3c(ccc2c1)N1Cc2c(ccc4cc(C(=O)N/N=C/c5nccc6ccccc56)ccc24)N(C3)C1 | nM | 25300 |
| O=C(N/N=C/c1ccccc1O)c1ccc2c3c(ccc2c1)N1Cc2c(ccc4cc(C(=O)N/N=C/c5ccccc5O)ccc24)N(C3)C1 | nM | 190 |
| COc1ccc(O)c(/C=N/NC(=O)c2ccc3c4c(ccc3c2)N2Cc3c(ccc5cc(C(=O)N/N=C/c6cc(OC)ccc6O)ccc35)N(C4)C2)c1 | nM | 60 |
| Cc1ccc(O)c(/C=N/NC(=O)c2ccc3c4c(ccc3c2)N2Cc3c(ccc5cc(C(=O)N/N=C/c6cc(C)ccc6O)ccc35)N(C4)C2)c1 | nM | 450 |

Answer for every listed entry: what is its IC50? The entries follow.
1. COC(=O)c1ccc(O)c(/C=N/NC(=O)c2ccc3c4c(ccc3c2)N2Cc3c(ccc5cc(C(=O)N/N=C/c6cc(C(=O)OC)ccc6O)ccc35)N(C4)C2)c1
2. O=C(N/N=C/c1cc(O)ccc1O)c1ccc2c3c(ccc2c1)N1Cc2c(ccc4cc(C(=O)N/N=C/c5cc(O)ccc5O)ccc24)N(C3)C1
3. O=C(N/N=C/c1cc(F)ccc1O)c1ccc2c3c(ccc2c1)N1Cc2c(ccc4cc(C(=O)N/N=C/c5cc(F)ccc5O)ccc24)N(C3)C1
4. O=C(NN=C(c1ccccn1)c1ccccn1)c1ccc2c3c(ccc2c1)N1Cc2c(ccc4cc(C(=O)NN=C(c5ccccn5)c5ccccn5)ccc24)N(C3)C1

[reply]
9470
120
810
780

---

System: HCT-116
Assay: Selectivity index, ratio of IC50 for human MRC5 cells to IC50 for human HCT116 cells
Format: functional
For each of the compounds below, state its Ratio IC50.
Answers are plain numbers.

| QUERY SMILES | Ratio IC50 |
| --- | --- |
| COc1cccnc1/C=N/NC(=O)c1ccc2c3c(ccc2c1)N1Cc2c(ccc4cc(C(=O)N/N=C/c5ncccc5OC)ccc24)N(C3)C1 | 1.2 |
| O=C(N/N=C/c1nccc2ccccc12)c1ccc2c3c(ccc2c1)N1Cc2c(ccc4cc(C(=O)N/N=C/c5nccc6ccccc56)ccc24)N(C3)C1 | 5.7 |
| O=C(NN=C(c1ccccn1)c1ccccn1)c1ccc2c3c(ccc2c1)N1Cc2c(ccc4cc(C(=O)NN=C(c5ccccn5)c5ccccn5)ccc24)N(C3)C1 | 3.4 |
| O=C(N/N=C/c1ccccc1O)c1ccc2c3c(ccc2c1)N1Cc2c(ccc4cc(C(=O)N/N=C/c5ccccc5O)ccc24)N(C3)C1 | 0.8 |

[ask] Which measured Ratio IC50 value corresponds to Cc1ccc(O)c(/C=N/NC(=O)c2ccc3c4c(ccc3c2)N2Cc3c(ccc5cc(C(=O)N/N=C/c6cc(C)ccc6O)ccc35)N(C4)C2)c1 ?
[reply] 0.8

---

Tested on: BJ
Experiment: Selectivity index, ratio of IC50 for human BJ cells to IC50 for human K562-TAX cells
Assay type: functional
Kindly state Ratio IC50 for each of the entries shown.
One number for each entry.

| QUERY SMILES | Ratio IC50 |
| --- | --- |
| O=C(N/N=C/c1cc(O)ccc1O)c1ccc2c3c(ccc2c1)N1Cc2c(ccc4cc(C(=O)N/N=C/c5cc(O)ccc5O)ccc24)N(C3)C1 | 13.8 |
| O=C(N/N=C/c1ccccc1O)c1ccc2c3c(ccc2c1)N1Cc2c(ccc4cc(C(=O)N/N=C/c5ccccc5O)ccc24)N(C3)C1 | 0.4 |

[ask] Consider the molecule shown here: O=C(N/N=C/c1cc([N+](=O)[O-])ccc1O)c1ccc2c3c(ccc2c1)N1Cc2c(ccc4cc(C(=O)N/N=C/c5cc([N+](=O)[O-])ccc5O)ccc24)N(C3)C1 What is its recorded Ratio IC50?
[reply] 0.9

---

Test system: Nucleic Acid
Experiment: Binding affinity to DNA (unknown origin) assessed as DNA intercalation by UV-visible spectrophotometry in presence of Fe3+
Assay type: nucleic-acid assay
Calls of active or inactive are those of the source. The calls are words filed in the database; no cut-off is given here.

| QUERY SMILES | TARGET DESC | Activity |
| --- | --- | --- |
| O=C(N/N=C/c1cc([N+](=O)[O-])ccc1O)c1ccc2c3c(ccc2c1)N1Cc2c(ccc4cc(C(=O)N/N=C/c5cc([N+](=O)[O-])ccc5O)ccc24)N(C3)C1 | Nucleic Acid | Active |
| COc1ccc(O)c(/C=N/NC(=O)c2ccc3c4c(ccc3c2)N2Cc3c(ccc5cc(C(=O)N/N=C/c6cc(OC)ccc6O)ccc35)N(C4)C2)c1 | Nucleic Acid | Active |
| O=C(N/N=C/c1nccc2ccccc12)c1ccc2c3c(ccc2c1)N1Cc2c(ccc4cc(C(=O)N/N=C/c5nccc6ccccc56)ccc24)N(C3)C1 | Nucleic Acid | Active |

---

Experiment: Metal chelating activity of the compound assessed as formation of Cr3+ complex by UV-vis spectrometry
Type: physicochemical
ATTRIBUTE MEASURED: Activity

| QUERY SMILES | Activity |
| --- | --- |
| O=C(N/N=C/c1cc(O)ccc1O)c1ccc2c3c(ccc2c1)N1Cc2c(ccc4cc(C(=O)N/N=C/c5cc(O)ccc5O)ccc24)N(C3)C1 | Not Active |
| COc1cccnc1/C=N/NC(=O)c1ccc2c3c(ccc2c1)N1Cc2c(ccc4cc(C(=O)N/N=C/c5ncccc5OC)ccc24)N(C3)C1 | Not Active |
| O=C(N/N=C/c1cc(Cl)ccc1O)c1ccc2c3c(ccc2c1)N1Cc2c(ccc4cc(C(=O)N/N=C/c5cc(Cl)ccc5O)ccc24)N(C3)C1 | Not Active |
| O=C(N/N=C/c1cc([N+](=O)[O-])ccc1O)c1ccc2c3c(ccc2c1)N1Cc2c(ccc4cc(C(=O)N/N=C/c5cc([N+](=O)[O-])ccc5O)ccc24)N(C3)C1 | Not Active |

Moving on to the next compound.
[ask] Given O=C(N/N=C/c1nccc2ccccc12)c1ccc2c3c(ccc2c1)N1Cc2c(ccc4cc(C(=O)N/N=C/c5nccc6ccccc56)ccc24)N(C3)C1 , state its recorded Activity.
[reply] Not Active

---

Tested on: BJ
Assay: Selectivity index, ratio of IC50 for human BJ cells to IC50 for human CEM-DNR cells
Assay type: functional
ATTRIBUTE MEASURED: Ratio IC50
Numbers only.

Example entries and their recorded answers appear below.
| QUERY SMILES | MEASURED RESULT |
| --- | --- |
| COC(=O)c1ccc(O)c(/C=N/NC(=O)c2ccc3c4c(ccc3c2)N2Cc3c(ccc5cc(C(=O)N/N=C/c6cc(C(=O)OC)ccc6O)ccc35)N(C4)C2)c1 | 3.2 |
| O=C(N/N=C/c1nccc2ccccc12)c1ccc2c3c(ccc2c1)N1Cc2c(ccc4cc(C(=O)N/N=C/c5nccc6ccccc56)ccc24)N(C3)C1 | 15.9 |
| O=C(N/N=C/c1ccccc1O)c1ccc2c3c(ccc2c1)N1Cc2c(ccc4cc(C(=O)N/N=C/c5ccccc5O)ccc24)N(C3)C1 | 0.1 |

Dear reader, for each entry below, please note its Ratio IC50.
1. O=C(N/N=C/c1cc(F)ccc1O)c1ccc2c3c(ccc2c1)N1Cc2c(ccc4cc(C(=O)N/N=C/c5cc(F)ccc5O)ccc24)N(C3)C1
2. Cc1ccc(O)c(/C=N/NC(=O)c2ccc3c4c(ccc3c2)N2Cc3c(ccc5cc(C(=O)N/N=C/c6cc(C)ccc6O)ccc35)N(C4)C2)c1

[reply]
1. 9.8
2. 0.1

Okay, here is my list. What is Ratio IC50 for each of these?
1. COc1cccnc1/C=N/NC(=O)c1ccc2c3c(ccc2c1)N1Cc2c(ccc4cc(C(=O)N/N=C/c5ncccc5OC)ccc24)N(C3)C1
2. O=C(N/N=C/c1cc(O)ccc1O)c1ccc2c3c(ccc2c1)N1Cc2c(ccc4cc(C(=O)N/N=C/c5cc(O)ccc5O)ccc24)N(C3)C1

[reply]
1. 14.9
2. 1.4
